Kindly supply the reported growth values for the records listed here.
Tested on: A498 renal
assay: NCI-60 one-dose screen, 48 h (100 = growth as untreated, 0 = no growth, -100 = all killed)
condition-label: 10 µM unless noted
About 83,000 compounds went through this panel and 20% of them were active in at least one assay; those are over-represented in the sample as a whole.
Answers are plain numbers, in %.

Here is how some compounds turned out for growth.
O=C1NCN(CCO)CN1 = 106
COC(=O)[C@]1(CCSC)N[C@H](c2cn(-c3ccccc3)nc2C)[C@@H]2C(=O)N(c3ccc(C)cc3)C(=O)[C@@H]21 = 77.2
Cc1cc(NC(=O)Nc2cc(Cl)ccc2C)no1 = 133
O=C(Nc1cccc([N+](=O)[O-])c1)c1cccc(C(=O)Nc2cccc([N+](=O)[O-])c2)c1 = 92.5

// below: growth requested for another compound
The observed growth for CCOC(=O)c1c(C)nc(C)c(C(=O)OCC)c1-c1cccnc1 when tested with A498 renal stands at 125
